B1: LINE1-full (parent)
chain: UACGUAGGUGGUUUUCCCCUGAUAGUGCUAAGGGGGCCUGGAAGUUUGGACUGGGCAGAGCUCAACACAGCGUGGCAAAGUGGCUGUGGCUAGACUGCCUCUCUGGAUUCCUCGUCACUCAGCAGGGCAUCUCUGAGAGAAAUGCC

- Variants of: B1
- Test Details: self-cleavage, relative activity (ratio to wild type); higher = more cleavage; in vitro, sequencing; the parent is a self-cleaving ribozyme
Class definitions on self-cleavage: I = under 0.6, II = from 0.6 up to 1, III = 1 and over

Task: Band for C19U C84U ?
Output: I

Task: Hi, small favor: classify A79U U102A by its self-cleavage when you get a moment.
Output: III

Task: Would you mind sorting U112A U132C into the appropriate category?
Output: III

Task: Place this variant in its band: G21U U96C
Output: I

Task: Which class is correct for the following variant? U13C G33A
Output: II

Task: Which class does U73A G97A fall in?
Output: I

Task: # classify by self-cleavage band: C37U U112A
Output: III

Task: Class? Entry: C19G A42G
Output: III

Task: Would you mind sorting G10A A65U into the appropriate category?
Output: I

Task: Determine which band this variant sits in: A117U A124G
Output: III

Task: Into which bin does this variant go? G36A
Output: III

Task: Hi, small favor: classify U15C G60A by its self-cleavage when you get a moment.
Output: I

Task: Into which category would you place A64G C99U ?
Output: I

Task: Category lookup for the variant C3U U29A
Output: III

Task: Into which category would you place U9C U91A ?
Output: II

Task: Bin? U14G A121U
Output: II

Task: Kindly state the category for this variant: C99U U130C
Output: II

Task: Returns: class label. Input: G35A A43G
Output: II

Task: // bin(item) where item = U45C G55A
Output: I

Task: Kindly state the category for this variant: C37A U47A
Output: III

Task: Determine which band this variant sits in: A92G C118U
Output: I

Task: Looking at A57G U102C , which class would you pick?
Output: I

Task: Into which category would you place G70U U91C ?
Output: I

Task: Class label required: G33U A142G
Output: II

Task: Hi there! Could you help me figure out the category for A65C A136G please?
Output: I

Task: Just checking, what class would you give G11U A129G here?
Output: II

Task: Which self-cleavage category applies to U5G here?
Output: II

Task: In plain terms, what class is U108C G126A ?
Output: III

Task: Hello team, could you let me know which band the following variant falls into: U73A C101U
Output: III

Task: Class? Entry: G105U U108A
Output: III

Task: For this variant, which bin applies? G36C U102C
Output: III

Task: Band of U112A G144A ?
Output: III

Task: Given U14A A124G , name the class its self-cleavage places it in.
Output: II

Task: Kindly state the category for this variant: U23C G48A
Output: III

Task: Exercise: read the entry U26A A94G and state which class it falls under.
Output: I

Task: For this variant, which bin applies? A69U A142G
Output: I

Task: Each variant maps to one class by self-cleavage. Which class for U39C C90G ?
Output: I

Task: Which class is correct for the following variant? U5A C38G
Output: II

Task: Exercise: read the entry U81G A140U and state which class it falls under.
Output: III

Task: Quick check: band for U73A A142G
Output: III

Task: Where would A50U U112A land among the classes by reported self-cleavage?
Output: III

Task: Which category does the recorded self-cleavage put U47C C76U in?
Output: III

Task: Assign a bin to U26A U45A
Output: II
